Every entry's value here was drawn from PubChem BioAssay (NCI).

# Tested on: UACC-257 melanoma
# protocol: NCI tumour cell line growth inhibition, 48 h
Could you please report measured TGI for the items listed next?

[in] Respond only with TGI recorded for `Cc1ccc(NC(=O)c2cc(S(=O)(=O)Nc3nc4ncccc4[nH]3)c(SSc3cc(Cl)c(C(=O)Nc4ccc(C)cc4)cc3S(=O)(=O)Nc3nc4ncccc4[nH]3)cc2Cl)cc1`
[out] > 100 µM

[in] Respond only with TGI recorded for `C=C(c1ccccc1)[C@@]1(O)CC[C@@H]1N(CC#N)Cc1ccccc1`
[out] 34 µM

[in] Respond only with TGI recorded for `COC(C)(C)C/C=C/C(C)=C/C=C/C(C)=C\C=C\C(C)=C\C=C\C=C(C)\C=C\C=C(C)\C=C\C=C(C)\C=C\CC(C)(C)OC`
[out] > 150 µg/mL

[in] Respond only with TGI recorded for `Cn1cc(C(=O)C[n+]2ccccc2)c2ccccc21`
[out] > 100 µM

[in] Respond only with TGI recorded for `CN(C)c1nc(Cl)c2c(-c3ccccc3)c(-c3ccccc3)oc2n1`
[out] > 100 µM

[in] Respond only with TGI recorded for `O=C1c2ccccc2S(=O)(=O)c2cc(-c3nn[nH]n3)ccc21`
[out] > 100 µM

[in] Respond only with TGI recorded for `C#CCOc1cccc(Nc2ncnc3cc(NC(=O)CCl)ccc23)c1`
[out] 32.3 µM

[in] Respond only with TGI recorded for `COCN1C(=O)[C@@H]2CCCN2C(=O)c2cc(N)ccc21`
[out] > 100 µM
